target_or_test_system: BRG-1 (Homo sapiens, UniProt P51532)
Sequence (P51532 whole entry): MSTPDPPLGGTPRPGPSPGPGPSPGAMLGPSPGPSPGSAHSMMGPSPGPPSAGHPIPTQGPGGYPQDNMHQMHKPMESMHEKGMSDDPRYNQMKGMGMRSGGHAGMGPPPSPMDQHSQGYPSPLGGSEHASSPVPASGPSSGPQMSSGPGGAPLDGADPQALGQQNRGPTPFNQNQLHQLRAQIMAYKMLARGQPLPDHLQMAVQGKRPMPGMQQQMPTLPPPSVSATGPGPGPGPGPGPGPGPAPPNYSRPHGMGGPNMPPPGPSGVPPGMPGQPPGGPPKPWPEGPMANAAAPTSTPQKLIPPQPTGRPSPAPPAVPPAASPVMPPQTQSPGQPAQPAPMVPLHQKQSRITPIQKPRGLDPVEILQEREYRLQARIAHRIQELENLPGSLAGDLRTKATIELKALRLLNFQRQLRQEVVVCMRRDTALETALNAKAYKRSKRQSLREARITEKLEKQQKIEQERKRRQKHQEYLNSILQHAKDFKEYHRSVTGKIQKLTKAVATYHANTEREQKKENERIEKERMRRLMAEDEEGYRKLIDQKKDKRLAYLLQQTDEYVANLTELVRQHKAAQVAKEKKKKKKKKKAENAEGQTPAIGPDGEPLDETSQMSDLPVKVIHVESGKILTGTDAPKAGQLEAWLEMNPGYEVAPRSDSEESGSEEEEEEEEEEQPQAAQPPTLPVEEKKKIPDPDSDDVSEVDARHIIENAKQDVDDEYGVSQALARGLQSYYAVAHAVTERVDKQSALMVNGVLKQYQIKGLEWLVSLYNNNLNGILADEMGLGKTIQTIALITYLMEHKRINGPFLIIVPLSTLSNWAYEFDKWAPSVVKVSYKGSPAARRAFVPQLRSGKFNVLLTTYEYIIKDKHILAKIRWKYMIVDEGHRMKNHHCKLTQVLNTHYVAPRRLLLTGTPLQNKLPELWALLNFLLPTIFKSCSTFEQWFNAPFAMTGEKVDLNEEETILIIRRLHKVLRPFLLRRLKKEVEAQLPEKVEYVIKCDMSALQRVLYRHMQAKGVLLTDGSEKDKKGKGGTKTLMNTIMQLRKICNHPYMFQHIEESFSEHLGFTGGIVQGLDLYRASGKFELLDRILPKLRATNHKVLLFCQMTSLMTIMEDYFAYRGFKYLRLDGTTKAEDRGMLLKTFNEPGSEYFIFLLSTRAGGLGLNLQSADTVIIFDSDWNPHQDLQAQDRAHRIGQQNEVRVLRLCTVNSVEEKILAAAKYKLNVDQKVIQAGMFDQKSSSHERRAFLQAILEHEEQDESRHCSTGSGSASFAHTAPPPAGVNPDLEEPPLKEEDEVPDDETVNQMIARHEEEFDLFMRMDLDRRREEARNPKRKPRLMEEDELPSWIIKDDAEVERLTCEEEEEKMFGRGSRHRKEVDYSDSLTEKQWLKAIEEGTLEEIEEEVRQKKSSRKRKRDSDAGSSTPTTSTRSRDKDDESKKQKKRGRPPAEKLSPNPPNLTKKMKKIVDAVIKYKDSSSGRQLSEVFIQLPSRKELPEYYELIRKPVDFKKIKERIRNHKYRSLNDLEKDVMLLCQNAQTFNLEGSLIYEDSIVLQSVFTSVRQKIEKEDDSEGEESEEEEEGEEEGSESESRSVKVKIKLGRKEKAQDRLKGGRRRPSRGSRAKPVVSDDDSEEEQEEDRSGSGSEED
protocol_text: ATPase catalytic activity assay of BRG-1 (ADP-Glo)
Format: biochemical
assay_context: ATPase catalytic activity, ADP-Glo; read-out: BRG1 Max % Inhibition
measured_attribute: Emax

CC1(F)COCc2ccc(C(=O)NCC(=O)Nc3nc(-c4cccc(N5CCC5)c4)cs3)cc21 (centres unmarked) [Compound 356] ... > 95%
C[C@@H]1CN(c2cccc(-c3csc(NC(=O)CNC(=O)c4cnc5c(c4)[C@](C)(C#N)CC5)n3)c2)C[C@H](C)O1 [Compound 170] ... > 95%
C[C@@H]1CN(c2cccc(-c3csc(NC(=O)CNC(=O)c4ccc5c(c4)[C@@]4(CCC[C@H]4O)CC5)n3)c2)C[C@H](C)O1 [Compound 188] ... > 50%
Cc1cnc(O)c(-c2cccc(-c3csc(NC(=O)CNC(=O)c4ccc5c(c4)[C@@](C)(CO)CC5)n3)n2)c1 [Compound 190] ... > 70%
C[C@@H]1CN(c2cccc(-c3csc(NC(=O)CNC(=O)c4ccc5c(c4)[C@@](C)(F)COC5)n3)n2)C[C@H](C)O1 [Compound 412] ... > 90%

# per-item lookup of Emax; items listed below
1. COC(=O)N1CCC[C@@H](c2csc(NC(=O)CNC(=O)c3ccc4c(c3)[C@](C)(C#N)COC4)n2)C1 [Compound 355]
2. C[C@@H]1CN(c2cccc(-c3csc(NC(=O)CNC(=O)c4ccc(F)c(C(C)(C)CO)c4)n3)c2)C[C@H](C)O1 [Compound 200]
3. C[C@@H]1CN(c2cccc(-c3csc(NC(=O)CNC(=O)c4cccc([C@@H]5COC[C@H]5O)c4)n3)n2)C[C@H](C)O1 [Compound 160]

> 95%
> 80%
< 30%

----------
target_or_test_system: BRG-1 (Homo sapiens)
protocol_text: ATPase catalytic activity assay of BRG-1 (ADP-Glo)
Type: biochemical
assay_context: ATPase catalytic activity, ADP-Glo; read-out: BRG1 Max % Inhibition
For each of the molecules below, state its Emax.

COC(=O)N1CCC[C@H](c2csc(NC(=O)CNC(=O)c3ccc4c(c3)C(C)(F)COC4)n2)C1 (stereo in doubt) [Compound 301] ... > 95%
Cc1ccc(C(=O)NCC(=O)Nc2nc(-c3cccc(-c4ccn(C)n4)c3)cs2)cc1S(=O)(=O)C(C)C [Compound 46] ... > 60%
Cc1cc(C(=O)NCC(=O)Nc2nc(-c3cccc(-c4ccncc4)c3)cs2)cc(C(C)(C)CN)c1C [Compound 97] ... > 70%
NCC1(c2cccc(C(=O)NCC(=O)Nc3nc(-c4cccc(-c5ccncc5)c4)cs3)c2)CC1 [Compound 72] ... > 50%

For every listed record, write down its Emax.
1. CC1(C(N)=O)CCc2ccc(C(=O)NCC(=O)Nc3nc(-c4cccc(-c5ccncc5)c4)cs3)cc21 (centres unmarked) [Compound 96]
2. C[C@@H]1CN(c2cc(-c3csc(NC(=O)CNC(=O)c4ccc5c(c4)[C@](C)(C#N)COC5)n3)ccn2)C[C@H](C)O1 [Compound 347]
3. CC1(c2cccc(C(=O)NCC(=O)Nc3nc(-c4cccc(-c5ccncc5)c4)cs3)c2)CCNC1=O (centres unmarked) [Compound 82]
4. C[C@@]1(C#N)COCc2ccc(C(=O)NCC(=O)Nc3nc(-c4cc(F)c5c(c4)OCC5)cs3)cc21 [Compound 353]

1. > 90%
2. > 95%
3. > 90%
4. > 95%

Please state Emax for every molecule in the list that follows.
1. C[C@@H]1CN(c2cccc(-c3csc(NC(=O)CNC(=O)c4ccc5c(c4)[C@@](C)(C#N)COC5)n3)c2)C[C@H](C)O1 [Compound 171]
2. CC1(C)c2cc(C(=O)NCC(=O)Nc3nc(-c4cccc(-c5ccncc5)c4)cs3)ccc2C[C@@H]1N [Compound 250]
3. C[C@@H]1CN(c2cccc(-c3csc(NC(=O)CNC(=O)c4ccc5c(c4)[C@H](C)COC5)n3)n2)C[C@H](C)O1 [Compound 321]
4. COc1cc(F)cc(-c2csc(NC(=O)CNC(=O)c3ccc4c(c3)[C@](C)(C#N)COC4)n2)c1 [Compound 377]
5. C[C@@H]1CN(c2cccc(-c3csc(NC(=O)CNC(=O)c4ccc5c(c4)C(F)(C(F)F)COC5)n3)c2)C[C@H](C)O1 (some centres unmarked) [Compound 329]
6. C[C@@H]1CN(c2cccc(-c3csc(NC(=O)CNC(=O)c4ccc5c(c4)[C@@](C)(C#N)CN5C)n3)c2)C[C@H](C)O1 [Compound 368]

> 70%
> 50%
> 90%
> 95%
> 95%
> 85%

Source listed as patent US12685735B2.
